Test system: human Peripheral Blood Mononuclear Cell (PMBC)
Experiment: PBMC assay: cytokine (IFN-α) stimulation at 24 hours
Format: cell-based
Conditions: lowest concentration stimulating IFN-α production at least 3-fold over background, Luminex, read-out: IFN MEC
Recorded measurements of minimal effective concentration, one per entry

Recorded results for 5 compounds are shown here.
CCCCOc1nc(N)c2c(n1)N(CCC1CCN(CC3CC3)CC1)CC(=O)N2 [Example 113]
≤ 0.03 µM
Nc1nc(OC2CCCC2)nc2c1NC(=O)CN2Cc1cccc(CN2CCCC2)c1 [Example 21]
≤ 0.03 µM
CCOC(=O)CN(Cc1cccc(CN2CCCC2)c1)c1nc(O[C@@H](C)COC)nc(N)c1[N+](=O)[O-] [Compound 86]
≤ 0.03 µM
CCCCOc1nc(N)c2[nH]c(=O)c(=O)n(Cc3cccc(CN4CCCC4)c3)c2n1 [Example 83]
≤ 0.03 µM
CCCCNc1nc(N)c2c(n1)N(Cc1cccc(CN3CCCC3)c1)CC(=O)N2 [Example 32]
> 0.03 µM

Return reported minimal effective concentration. Input compound: CCCCOc1nc(N)c2c(n1)N(Cc1ccc(C(F)(F)F)nc1)CC(=O)N2 [Example 117]
> 0.03 µM

Return reported minimal effective concentration. Input compound: CCCCOc1nc(N)c2[nH]c(=O)c(=O)n(Cc3ccc(-c4ccc(CN5CCCC5)cc4)cc3)c2n1 [Example 101]
> 0.03 µM

Return reported minimal effective concentration. Input compound: CCCCOc1nc(N)c2c(n1)N(Cc1ccc(CN3CCCC3)cc1)C(C)C(=O)N2 (centres unmarked) [Example 65]
≤ 0.03 µM

* * *

Test system: human Peripheral Blood Mononuclear Cell (PMBC)
Test: PBMC assay: cytokine (IFN-α) stimulation at 24 hours
Type: cell-based
Conditions: lowest concentration stimulating IFN-α production at least 3-fold over background, Luminex, read-out: IFN MEC
measurement name: minimal effective concentration

Nc1nc(NCc2ccco2)nc2c1NC(=O)CN2Cc1cccc(CN2CCCC2)c1
≤ 0.03 µM
COCCNc1nc(N)c2c(n1)N(Cc1cccc(CN3CCCC3)c1)CC(=O)N2
> 0.03 µM
Nc1nc(NC2CCCCC2)nc2c1NC(=O)CN2Cc1cccc(CN2CCCC2)c1
> 0.03 µM
CCCCOc1nc(N)c2c(n1)N(Cc1ccc3c(c1)CN(CC)CC3)CC(=O)N2
≤ 0.03 µM
CC(C)COc1nc(N)c2c(n1)N(Cc1cccc(CN3CCCC3)c1)CC(=O)N2
> 0.03 µM

Return reported minimal effective concentration. Input compound: CS(=O)(=O)CCNc1nc(N)c2c(n1)N(Cc1cccc(CN3CCCC3)c1)CC(=O)N2
> 0.03 µM

Return reported minimal effective concentration. Input compound: Nc1nc(OCCN2CCCC2=O)nc2c1NC(=O)CN2Cc1cccc(CN2CCCC2)c1
> 0.03 µM

Return reported minimal effective concentration. Input compound: Nc1nc(NCC2CCCO2)nc2c1NC(=O)CN2Cc1cccc(CN2CCCC2)c1 (centres unmarked)
> 0.03 µM

* * *

Recorded measurements of minimal effective concentration, one per entry
System: human Peripheral Blood Mononuclear Cell (PMBC)
Experiment: PBMC assay: cytokine (IFN-α) stimulation at 24 hours
Format: cell-based
Settings: lowest concentration stimulating IFN-α production at least 3-fold over background, Luminex, read-out: IFN MEC

CCCCNc1nc(N)c2c(n1)N(Cc1cccc(CN3CCCC3)c1)CCC(=O)N2 [Example 76]
> 0.03 µM
CCCCOc1nc(N)c2c(n1)N(CCCN(Cc1ccccc1)C(=O)CN1CCN(C)CC1)CC(=O)N2 [Example 110]
≤ 0.03 µM
COC[C@@H](C)Oc1nc(N)c2c(n1)N(Cc1cccc(CN3CCCC3)c1)CC(=O)N2 [Example 88]
≤ 0.03 µM

Return reported minimal effective concentration. Input molecule: CCC(CC)Oc1nc(N)c2c(n1)N(Cc1cccc(CN3CCCC3)c1)CC(=O)N2 [Example 25]
≤ 0.03 µM

Return reported minimal effective concentration. Input molecule: Nc1nc(OCCC2CC2)nc2c1NC(=O)CN2Cc1cccc(CN2CCCC2)c1 [Example 9]
≤ 0.03 µM

Return reported minimal effective concentration. Input molecule: Nc1nc(OCCCCO)nc2c1NC(=O)CN2Cc1cccc(CN2CCCC2)c1 [Example 27]
> 0.03 µM

Return reported minimal effective concentration. Input molecule: CC(C)CCOc1nc(N)c2c(n1)N(Cc1cccc(CN3CCCC3)c1)CC(=O)N2 [Example 11]
> 0.03 µM

Return reported minimal effective concentration. Input molecule: CCCCOc1nc(N)c2c(n1)N(Cc1ccc3c(c1)CCN(CC)C3)CC(=O)N2 [Example 104]
≤ 0.03 µM

Return reported minimal effective concentration. Input molecule: Nc1nc(NC2CCCC2)nc2c1NC(=O)CN2Cc1cccc(CN2CCCC2)c1 [Example 41]
≤ 0.03 µM

Return reported minimal effective concentration. Input molecule: CCOc1nc(N)c2c(n1)N(Cc1cccc(CN3CCCC3)c1)CC(=O)N2 [Example 62]
> 0.03 µM
